# CONDITION_DESCRIPTION: 313.15 K; 101.33 kPa; Liquid
Quick reference for viscosity among some compounds
Report only the number, with the unit mPa·s understood.

Prompt: Fill blank: measured viscosity of the compound "CCC[n+]1cccc(C)c1.O=S(=O)([N-]S(=O)(=O)C(F)(F)F)C(F)(F)F" is ____.
Completion: 29.98

====

# CONDITION_DESCRIPTION: 343.15 K; 101.33 kPa; Liquid
Numbers after ± are expanded uncertainties.
MEASURED_METRIC: mass density
Your answer should be a number followed by the unit of measure.

Past entries and their recorded results:
Prompt: Which mass density value is on record for CCCC[n+]1ccccc1.O=S(=O)([N-]S(=O)(=O)C(F)(F)F)C(F)(F)F [1-butylpyridinium bis[(trifluoromethyl)sulfonyl]imide] ?
Completion: 1407 ± 1.7 kg/m3

Prompt: Endpoint output: mass density of CCCCCCCC[n+]1cccc(C)c1 [1-octyl-3-methylpyridinium] . Value?
Completion: 1290.9 ± 1.5 kg/m3

Prompt: Need mass density of "CCCC[n+]1ccc(C)cc1.O=S(=O)([N-]S(=O)(=O)C(F)(F)F)C(F)(F)F" , thanks.
Completion: 1370.7 ± 1.7 kg/m3

Prompt: Recorded mass density for CCCCCC[n+]1ccccc1.O=S(=O)([N-]S(=O)(=O)C(F)(F)F)C(F)(F)F [1-hexylpyridinium bis(trifluromethylsulfonyl)imide] , please?
Completion: 1354 ± 1.6 kg/m3

Next:
Prompt: Consider the compound shown here: "CCCC[n+]1cccc(C)c1.O=S(=O)([N-]S(=O)(=O)C(F)(F)F)C(F)(F)F" What is its recorded mass density?
Completion: 1371.9 ± 1.7 kg/m3

Prompt: Request the reported mass density associated with "CCC[n+]1cccc(C)c1.O=S(=O)([N-]S(=O)(=O)C(F)(F)F)C(F)(F)F"
Completion: 1405.7 ± 1.7 kg/m3

====

Listed next: entries and their corresponding mass density.
# CONDITION_DESCRIPTION: 353.15 K; 101.33 kPa; Liquid
Give a bare numeral; the unit kg/m3 is implied.

Prompt: I would be grateful if you could share the reported mass density for "CCC[n+]1cccc(C)c1.O=S(=O)([N-]S(=O)(=O)C(F)(F)F)C(F)(F)F" .
Completion: 1396.6

Prompt: # lookup: mass density of CCCCCCCC[n+]1cccc(C)c1 [1-octyl-3-methylpyridinium]
Completion: 1282.5

Prompt: What does the record list as mass density for "CCCC[n+]1ccc(C)cc1.O=S(=O)([N-]S(=O)(=O)C(F)(F)F)C(F)(F)F" ?
Completion: 1361.7

Prompt: Look at this compound and give its reported mass density. CCCC[n+]1ccccc1.O=S(=O)([N-]S(=O)(=O)C(F)(F)F)C(F)(F)F [1-butylpyridinium bis[(trifluoromethyl)sulfonyl]imide]
Completion: 1398

Next:
Prompt: # mass density lookup, item "CCCC[n+]1cccc(C)c1.O=S(=O)([N-]S(=O)(=O)C(F)(F)F)C(F)(F)F"
Completion: 1362.9

Prompt: Name the recorded mass density for CCCCCC[n+]1ccccc1.O=S(=O)([N-]S(=O)(=O)C(F)(F)F)C(F)(F)F [1-hexylpyridinium bis(trifluromethylsulfonyl)imide] .
Completion: 1345.3

====

# CONDITION_DESCRIPTION: 303.15 K; 101.33 kPa; Liquid
As shown below, each of these compounds has a reported mass density value.
Give just the numeric value; kg/m3 need not be written.

Prompt: Name the recorded mass density for CCCC[n+]1ccccc1.O=S(=O)([N-]S(=O)(=O)C(F)(F)F)C(F)(F)F [1-butylpyridinium bis[(trifluoromethyl)sulfonyl]imide] .
Completion: 1444

Prompt: Returns the measured mass density for the input compound. Input: CCCCCCCC[n+]1cccc(C)c1 [1-octyl-3-methylpyridinium]
Completion: 1325.2

Prompt: Request the reported mass density associated with "CCCC[n+]1ccc(C)cc1.O=S(=O)([N-]S(=O)(=O)C(F)(F)F)C(F)(F)F"
Completion: 1407.6

***
Prompt: What value of measured mass density is listed for "CCCC[n+]1cccc(C)c1.O=S(=O)([N-]S(=O)(=O)C(F)(F)F)C(F)(F)F" ?
Completion: 1408.2

Prompt: Which mass density value is on record for CCCCCC[n+]1ccccc1.O=S(=O)([N-]S(=O)(=O)C(F)(F)F)C(F)(F)F [1-hexylpyridinium bis(trifluromethylsulfonyl)imide] ?
Completion: 1389.7

Prompt: mass density lookup needed for "CCC[n+]1cccc(C)c1.O=S(=O)([N-]S(=O)(=O)C(F)(F)F)C(F)(F)F" , thanks.
Completion: 1442.8
